Overview of reported cytotoxicity at 24 h, 10 µM across a group of compounds:
# experiment: Cytotoxicity against human A549 cells assessed as reduction in cell viability at 10 uM incubated for 24 hrs by Cell-Titer Glo luminescence assay
# Assay type: toxicity, cell-based
# condition_context: read-out: INH
// note: answer is a bare numeric in %

Previously resolved entries follow.
May I ask what cytotoxicity at 24 h, 10 µM has been recorded for COc1ccc(/C=N/Nc2ncnc3c(Nc4ccc(F)c(Cl)c4)ncnc23)cc1O ? -9

May I ask what cytotoxicity at 24 h, 10 µM has been recorded for COc1ccc(Nc2ncnc3c(N/N=C/c4cc(O)c(O)c(O)c4)ncnc23)cc1 ? 12

May I ask what cytotoxicity at 24 h, 10 µM has been recorded for COc1cc(/C=N/Nc2ncnc3c(Nc4ccc(Cl)c(C(F)(F)F)c4)ncnc23)cc(OC)c1OC ? -7

Continuing:
May I ask what cytotoxicity at 24 h, 10 µM has been recorded for COc1ccc(Nc2ncnc3c(N/N=C/c4ccc(O)c(O)c4)ncnc23)cc1 ? 39

May I ask what cytotoxicity at 24 h, 10 µM has been recorded for COc1cc(/C=N/Nc2ncnc3c(Nc4ccc(F)c(Cl)c4)ncnc23)ccc1O ? 2

May I ask what cytotoxicity at 24 h, 10 µM has been recorded for Oc1cc(/C=N/Nc2ncnc3c(Nc4ccc(OC(F)(F)F)cc4)ncnc23)cc(O)c1O ? 9

May I ask what cytotoxicity at 24 h, 10 µM has been recorded for Oc1ccc(/C=N/Nc2ncnc3c(Nc4ccc(Cl)c(C(F)(F)F)c4)ncnc23)cc1O ? 15

May I ask what cytotoxicity at 24 h, 10 µM has been recorded for Oc1ccc(/C=N/Nc2ncnc3c(Nc4ccc(F)c(Cl)c4)ncnc23)cc1O ? -6

May I ask what cytotoxicity at 24 h, 10 µM has been recorded for Oc1cc(/C=N/Nc2ncnc3c(Nc4ccc(Cl)c(C(F)(F)F)c4)ncnc23)cc(O)c1O ? -4

====

Overview of reported cytotoxicity at 24 h, 10 µM across a group of compounds:
# experiment: Cytotoxicity against human A549 cells assessed as reduction in cell viability at 10 uM incubated for 24 hrs by Cell-Titer Glo luminescence assay
# Assay type: toxicity, cell-based
# condition_context: read-out: INH
// note: answer is a bare numeric in %

May I ask what cytotoxicity at 24 h, 10 µM has been recorded for COc1ccc(/C=N/Nc2ncnc3c(Nc4ccc(Cl)c(C(F)(F)F)c4)ncnc23)cc1O ? 3

May I ask what cytotoxicity at 24 h, 10 µM has been recorded for COc1cccc(Nc2ncnc3c(N/N=C/c4cc(O)c(O)c(O)c4)ncnc23)c1 ? -6

May I ask what cytotoxicity at 24 h, 10 µM has been recorded for COc1cccc(Nc2ncnc3c(N/N=C/c4ccc(OC)c(OC)c4)ncnc23)c1 ? 40

May I ask what cytotoxicity at 24 h, 10 µM has been recorded for COc1cccc(Nc2ncnc3c(NN)ncnc23)c1 ? 16

May I ask what cytotoxicity at 24 h, 10 µM has been recorded for COc1cc(/C=N/Nc2ncnc3c(Nc4ccc(OC(F)(F)F)cc4)ncnc23)cc(OC)c1OC ? 6

Now examine the next entry.
May I ask what cytotoxicity at 24 h, 10 µM has been recorded for Oc1cc(/C=N/Nc2ncnc3c(Nc4ccc(F)c(Cl)c4)ncnc23)cc(O)c1O ? 27

====

# System: Leishmania infantum
# experiment: Anti-leishmanial activity against promastigote stage of Leishmania infantum MHOM/MA/67/ITMAP-263 assessed as inhibition of parasite growth incubated for 72 hrs by resazurin-dye based assay
# Format: functional, organism-based
# condition_context: MHOM/MA/67/ITMAP-263, 72 h
property: log10 of IC50 (log10 of the value in nM)
Quick note: numbers are log10 of IC50, with nM as the unit.

May I ask what log10 of IC50 has been recorded for COc1ccc(Nc2ncnc3c(N/N=C/c4ccc(OC)c(OC)c4)ncnc23)cc1 ? 3.29

May I ask what log10 of IC50 has been recorded for COc1ccc(Nc2ncnc3c(NN)ncnc23)cc1 ? 2.86

May I ask what log10 of IC50 has been recorded for CCCCCCCCCCCCCCCCOP(=O)([O-])OCC[N+](C)(C)C [MILTEFOSINE] ? 4.08

May I ask what log10 of IC50 has been recorded for COc1ccc(/C=N/Nc2ncnc3c(Nc4ccc(OC(F)(F)F)cc4)ncnc23)cc1O ? 3.40

May I ask what log10 of IC50 has been recorded for COc1cc(/C=N/Nc2ncnc3c(Nc4ccc(OC(F)(F)F)cc4)ncnc23)ccc1O ? 3.94

Now examine the next entry.
May I ask what log10 of IC50 has been recorded for COc1cccc(Nc2ncnc3c(NN)ncnc23)c1 ? 2.45

====

# experiment: Selectivity index, ratio of CC50 for cytotoxicity against human THP-1 cells to IC50 for anti-trypanosomal activity against trypomastigote blood stage of Trypanosoma brucei Lister 427
# Assay type: toxicity, cell-based
# condition_context: read-out: Ratio CC50/IC50
Overview of reported selectivity ratio across a group of compounds:

May I ask what selectivity ratio has been recorded for Oc1ccc(/C=N/Nc2ncnc3c(Nc4ccc(F)c(Cl)c4)ncnc23)cc1O ? > 85

May I ask what selectivity ratio has been recorded for COc1cc(/C=N/Nc2ncnc3c(Nc4ccc(OC(F)(F)F)cc4)ncnc23)cc(OC)c1OC ? > 26

May I ask what selectivity ratio has been recorded for Oc1cc(/C=N/Nc2ncnc3c(Nc4ccc(F)c(Cl)c4)ncnc23)cc(O)c1O ? > 26

May I ask what selectivity ratio has been recorded for COc1ccc(/C=N/Nc2ncnc3c(Nc4ccc(OC(F)(F)F)cc4)ncnc23)cc1O ? > 39

Continuing:
May I ask what selectivity ratio has been recorded for Oc1ccc(/C=N/Nc2ncnc3c(Nc4ccc(Cl)c(C(F)(F)F)c4)ncnc23)cc1O ? > 23

====

Overview of reported cytotoxicity at 24 h, 10 µM across a group of compounds:
# experiment: Cytotoxicity against human A549 cells assessed as reduction in cell viability at 10 uM incubated for 24 hrs by Cell-Titer Glo luminescence assay
# Format: toxicity, cell-based
# condition_context: read-out: INH
// note: answer is a bare numeric in %

May I ask what cytotoxicity at 24 h, 10 µM has been recorded for COc1cc(/C=N/Nc2ncnc3c(Nc4ccc(OC(F)(F)F)cc4)ncnc23)ccc1O ? 38

Continuing:
May I ask what cytotoxicity at 24 h, 10 µM has been recorded for NNc1ncnc2c(Nc3ccc(OC(F)(F)F)cc3)ncnc12 ? 17

May I ask what cytotoxicity at 24 h, 10 µM has been recorded for Oc1ccc(/C=N/Nc2ncnc3c(Nc4ccc(OC(F)(F)F)cc4)ncnc23)cc1O ? 18

May I ask what cytotoxicity at 24 h, 10 µM has been recorded for COc1cccc(Nc2ncnc3c(N/N=C/c4ccc(O)c(O)c4)ncnc23)c1 ? 22

May I ask what cytotoxicity at 24 h, 10 µM has been recorded for COc1cc(/C=N/Nc2ncnc3c(Nc4ccc(F)c(Cl)c4)ncnc23)cc(OC)c1O ? 5

May I ask what cytotoxicity at 24 h, 10 µM has been recorded for COc1ccc(/C=N/Nc2ncnc3c(Nc4ccc(OC(F)(F)F)cc4)ncnc23)cc1O ? 38

May I ask what cytotoxicity at 24 h, 10 µM has been recorded for COc1ccc(Nc2ncnc3c(N/N=C/c4ccc(OC)c(OC)c4)ncnc23)cc1 ? 23

====

# experiment: Cytotoxicity against human THP-1 cells assessed as reduction in cell viability incubated for 72 hrs by MTT assay
# Type: toxicity, cell-based
Overview of reported CC50 at 72 h across a group of compounds:

Previously resolved entries follow.
May I ask what CC50 at 72 h has been recorded for Oc1cc(/C=N/Nc2ncnc3c(Nc4ccc(Cl)c(C(F)(F)F)c4)ncnc23)cc(O)c1O ? > 10 µM

May I ask what CC50 at 72 h has been recorded for COc1ccc(/C=N/Nc2ncnc3c(Nc4ccc(F)c(Cl)c4)ncnc23)cc1O ? > 10 µM

May I ask what CC50 at 72 h has been recorded for COc1cc(/C=N/Nc2ncnc3c(Nc4ccc(Cl)c(C(F)(F)F)c4)ncnc23)cc(OC)c1OC ? > 10 µM

May I ask what CC50 at 72 h has been recorded for COc1ccc(Nc2ncnc3c(N/N=C/c4ccc(OC)c(OC)c4)ncnc23)cc1 ? > 100 µM

Continuing:
May I ask what CC50 at 72 h has been recorded for COc1cc(/C=N/Nc2ncnc3c(Nc4ccc(OC(F)(F)F)cc4)ncnc23)cc(OC)c1OC ? > 10 µM

May I ask what CC50 at 72 h has been recorded for COc1cccc(Nc2ncnc3c(N/N=C/c4cc(O)c(O)c(O)c4)ncnc23)c1 ? > 100 µM

May I ask what CC50 at 72 h has been recorded for Oc1ccc(/C=N/Nc2ncnc3c(Nc4ccc(Cl)c(C(F)(F)F)c4)ncnc23)cc1O ? > 10 µM

May I ask what CC50 at 72 h has been recorded for COc1ccc(/C=N/Nc2ncnc3c(Nc4ccc(OC(F)(F)F)cc4)ncnc23)cc1O ? > 10 µM

May I ask what CC50 at 72 h has been recorded for COc1ccc(Nc2ncnc3c(NN)ncnc23)cc1 ? > 50 µM

May I ask what CC50 at 72 h has been recorded for COc1cccc(Nc2ncnc3c(NN)ncnc23)c1 ? > 50 µM

May I ask what CC50 at 72 h has been recorded for COc1ccc(/C=N/Nc2ncnc3c(Nc4ccc(Cl)c(C(F)(F)F)c4)ncnc23)cc1O ? > 10 µM
